The reported measurements were obtained from patent US20210130452A1.

Target: T1, human IL-17A/F heterodimer (human, UniProt Q16552 24-155; Q96PD4 31-163, limits assumed)
T1 construct: bought, made in E. coli (R&D Systems 5194-IL/CF); also called hIL-17A/F; hIL17A/F
T1 sequence (Q16552 24-155 limits assumed, chain 1 of 2): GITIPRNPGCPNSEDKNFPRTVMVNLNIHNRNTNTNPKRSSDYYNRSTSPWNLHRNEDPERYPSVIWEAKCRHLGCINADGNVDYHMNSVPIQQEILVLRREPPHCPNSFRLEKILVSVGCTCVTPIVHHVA
T1 sequence (Q96PD4 31-163 limits assumed, chain 2 of 2): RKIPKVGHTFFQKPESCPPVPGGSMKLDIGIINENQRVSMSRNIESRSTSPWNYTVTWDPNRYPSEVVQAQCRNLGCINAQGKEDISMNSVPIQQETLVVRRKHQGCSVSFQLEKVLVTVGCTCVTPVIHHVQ
Assay: SPR (Biacore) off-rate

- binder: "IL17MS3040 (VHH) VHH: EVQLVESGGGLVQAGGSLRLSCAASGRTFSSYVVGWFRQAPGKEREFIGAISGSGGSIYYAVSEKDRFTISRDNGKNTLYLQMSSLKAEDTAVYYCTADQEFGYLRFGRSEYWGQGTQVTVSS"
  koff [s⁻¹]: 0.00878
- binder: "IL17MS3055 (VHH) VHH: EVQLVESGGGLVQPGGSLRLSCAASGRTFSSYVVGWFRQAPGKEREFIGAISGSGDSIYYAVSEKGRFTISRDNGKNTLYLQMNSLRAEDTAVYYCTADQEFGYLRFGRSEYWGQGTLVTVSS"
  koff [s⁻¹]: 0.00332
- binder: "IL17MS3041 (VHH) VHH: EVQLVESGGGLVQAGGSLRLSCAASGRTFSSYVVGWFRQAPGKEREFIGAISGSGESIYYAVSEKDRFTISRDNGKNTLYLQMSSLKAEDTAVYYCTADQEFGYLRFGRSEYWGQGTQVTVSS"
  koff [s⁻¹]: 0.00427
- binder: "IL17MS16A04 (VHH, Class 3 Nanobody, wild type; also called WT) VHH: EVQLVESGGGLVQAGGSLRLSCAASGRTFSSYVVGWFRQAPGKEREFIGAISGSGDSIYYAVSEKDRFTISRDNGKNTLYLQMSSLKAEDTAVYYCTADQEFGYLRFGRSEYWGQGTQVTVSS"
  koff [s⁻¹]: 0.0024
- binder: "IL17MS3056 (VHH, variant of IL17MS16A04; Kabat numbering) VHH: EVQLVESGGGLVQPGGSLRLSCAASGRTFSSYVVGWFRQAPGKEREFVGAISGSGDSIYYAVSEKDRFTISRDNSKNTLYLQMSSLRAEDTAVYYCTADQEFGYLRFGRSEYWGQGTLVTVSS"
  koff [s⁻¹]: 0.00288
- binder: "IL17MS3042 (VHH) VHH: EVQLVESGGGLVQAGGSLRLSCAASGRTFSSYVVGWFRQAPGKEREFIGAISGSGDTIYYAVSEKDRFTISRDNGKNTLYLQMSSLKAEDTAVYYCTADQEFGYLRFGRSEYWGQGTQVTVSS"
  koff [s⁻¹]: 0.005
- binder: "IL17MS3054 (VHH, variant of IL17MS16A04; Kabat numbering) VHH: EVQLVESGGGLVQPGGSLRLSCAASGRTFSSYVVGWFRQAPGKEREFIGAISGSGDSIYYAVSEKDRFTISRDNSKNTLYLQMSSLRPEDTAVYYCTADQEFGYLRFGRSEYWGQGTLVTVSS"
  koff [s⁻¹]: 0.00308
